Consider the following compounds and their measured CC50 readings.
# measurement_protocol: in vitro
# particulars: monkey
Only the number, expressed in µM, is required.

compound	unit_tag	numeric_value
CC(=O)Oc1ccccc1C(=O)Oc1ccc(-c2cc(=S)ss2)cc1	µM	32.9

Next item in the queue.
Clc1ccc(Nc2cc3nc4ccccc4n(-c4ccc(Cl)cc4)c-3cc2=NCC2CCCN3CCCCC23)cc1 (stereo not shown) has a reported CC50 of 3.14

###

Consider the following compounds and their measured log10 CC50 readings.
# measurement_protocol: in vitro
# particulars: monkey
Quick note: numbers are log10 of CC50, with µM as the unit.

Please review the following examples before continuing.
compound	log10 CC50
Oc1ccc(-n2nc3ccc(C(F)(F)F)cc3n2)cc1 [Compound 21]	1.40
CCN(CC)CCCn1c(Cn2nnc3ccccc32)nc2cc(Cl)ccc21 [Compound 18]	2.03
Clc1ccc2c(c1)nc(Cn1nnc3ccccc31)n2CC[C@@H]1CCCN2CCCC[C@H]12 [Compound 20]	1.29
c1ccc(Nc2cc3nc4ccccc4n(-c4ccccc4)c-3cc2=NCCCCC23CCCCN2CCCC3)cc1 [Compound 3]	1.02

CN1CCN(CCN=c2cc3n(-c4ccc(Cl)cc4)c4ccccc4nc-3cc2Nc2cccnc2)CC1 [Compound 7] has a reported log10 CC50 of 0.42

CC(=NNC(N)=S)c1ccc2c(c1)nc(Cc1ccccc1)n2C[C@@H]1CCCN2CCCC[C@H]12 [Compound 14] has a reported log10 CC50 of 1.85

Clc1ccc(-n2c3cc(=NCCN4CCOCC4)c(Nc4cccnc4)cc-3nc3ccccc32)cc1 [Compound 8] has a reported log10 CC50 of 0.24

###

# measurement_protocol: in vitro
# particulars: monkey
Note to self: use Met only for CC50 readings below 70 µM; a reading exactly at 70 µM still gets Not met.

Is CC50 of c1ccc(Nc2cc3nc4ccccc4n(-c4ccccc4)c-3cc2=NCC23CCCN2CCC3)cc1 strictly below 70 µM?
Met

Is CC50 of Fc1ccc(Nc2cc3nc4ccccc4n(-c4ccc(F)cc4)c-3cc2=NCCCCC23CCCCN2CCCC3)cc1 strictly below 70 µM?
Met

Is CC50 of Cc1ccc(Nc2cc3nc4ccccc4n(-c4ccc(C)cc4)c-3cc2=NCC2CCCN3CCCCC23)cc1 (centres unmarked) strictly below 70 µM?
Met

Is CC50 of Clc1ccc2c(NCC34CCCN3CCC4)ccnc2c1 strictly below 70 µM?
Not met

Is CC50 of Clc1ccc(-n2c3cc(=NCCCN4CCCCC4)c(Nc4cccnc4)cc-3nc3ccccc32)cc1 strictly below 70 µM?
Met

Is CC50 of CN1CCCC1=CN=Nc1cccc(Br)c1 strictly below 70 µM?
Met

Is CC50 of CCN(CC)CCCC(C)Nc1ccnc2cc(Cl)ccc12 (centres unmarked) [CQ, chloroquine, reference compound] strictly below 70 µM?
Not met

Is CC50 of CCN(CC)CCCn1c(Cc2ccccc2)nc2cc(C(C)=NNC(N)=S)ccc21 strictly below 70 µM?
Not met

###

# measurement_protocol: in vitro
# particulars: monkey
measured_metric: CC50

Please review the following examples before continuing.
1. CCN(CC)CCCn1c(Cn2nnc3ccccc32)nc2cc(C(C)=NNC(N)=S)ccc21 67.1 µM
2. Clc1ccc2c(NC[C@@H]3CCCN4CCCC[C@H]34)ccnc2c1 44 µM
3. Clc1ccc(Nc2cc3nc4ccccc4n(-c4ccc(Cl)cc4)c-3cc2=NCC23CCCN2CCC3)cc1 5.58 µM

Next item in the queue.
Cc1ccc2c(c1)nc(Cn1nnc3ccccc31)n2CC[C@@H]1CCCN2CCCC[C@H]12 has a reported CC50 of 76.3 µM

Reference source for all entries: paper PMC11676875
